Let's go through some IC50 measurements on Cytochrome P450 3A4 (Homo sapiens) together.
Sequence (P08684 whole entry): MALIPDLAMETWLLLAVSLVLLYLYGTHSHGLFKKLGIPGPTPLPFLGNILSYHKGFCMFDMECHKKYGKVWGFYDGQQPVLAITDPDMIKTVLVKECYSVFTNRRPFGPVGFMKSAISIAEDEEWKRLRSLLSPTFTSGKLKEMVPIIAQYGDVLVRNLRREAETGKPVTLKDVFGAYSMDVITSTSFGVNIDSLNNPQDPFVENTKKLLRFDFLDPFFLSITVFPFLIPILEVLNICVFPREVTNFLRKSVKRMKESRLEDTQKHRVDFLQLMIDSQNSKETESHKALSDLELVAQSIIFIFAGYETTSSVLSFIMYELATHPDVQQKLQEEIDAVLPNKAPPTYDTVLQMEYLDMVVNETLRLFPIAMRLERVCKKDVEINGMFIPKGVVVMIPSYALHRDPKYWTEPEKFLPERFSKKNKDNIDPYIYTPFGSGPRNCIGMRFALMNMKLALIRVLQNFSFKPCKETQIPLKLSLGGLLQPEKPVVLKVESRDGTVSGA
READOUT: IC50 (µM)

P. CC(C)c1nc(CN(C(=O)N[C@H](C(=O)N[C@H](CC[C@H](Cc2ccccc2)NC(=O)OCc2cncs2)Cc2ccccc2)C(C)C)C2CC2)cs1
Q. CN(Cc1cncs1)C(=O)NCCC(=O)N[C@H](CC[C@H](Cc1ccccc1)NC(=O)OCc1cncs1)Cc1ccccc1
Could you tell me which of these two has the smaller IC50 figure? First: P Second: Q Answer by quoting the chosen item's label.
Q
(Q: 0.13 µM, P: 0.21 µM)

* * *

Target chain: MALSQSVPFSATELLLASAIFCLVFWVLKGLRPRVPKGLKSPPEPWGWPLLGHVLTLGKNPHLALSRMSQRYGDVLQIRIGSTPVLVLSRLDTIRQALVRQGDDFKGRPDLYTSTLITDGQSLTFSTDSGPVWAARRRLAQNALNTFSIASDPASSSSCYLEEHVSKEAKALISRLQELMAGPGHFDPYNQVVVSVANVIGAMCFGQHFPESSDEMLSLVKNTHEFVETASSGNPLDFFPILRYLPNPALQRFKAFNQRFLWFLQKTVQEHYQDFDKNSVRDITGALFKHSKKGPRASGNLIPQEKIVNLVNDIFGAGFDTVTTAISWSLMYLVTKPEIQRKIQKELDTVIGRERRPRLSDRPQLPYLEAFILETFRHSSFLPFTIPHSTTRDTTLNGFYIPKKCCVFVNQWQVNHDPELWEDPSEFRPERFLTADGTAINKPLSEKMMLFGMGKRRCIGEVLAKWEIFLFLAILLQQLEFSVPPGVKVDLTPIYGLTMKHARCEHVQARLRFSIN
pIC50: −log10 of the molar value.
Some compounds, each annotated with its measured pIC50.

Previously resolved entries follow.
COMPOUND | READOUT | OBSERVED_RESULT
CC(C)c1nc(CN(C)C(=O)N[C@@H](CCN2CCOCC2)C(=O)N[C@H](CC[C@H](Cc2ccccc2)NC(=O)OCc2cncs2)Cc2ccccc2)cs1 [COBICISTAT] | pIC50 | < 4.60
CC(C)c1nc(CN(C)C(=O)N[C@@H](Cc2cnc[nH]2)C(=O)N[C@@H](CC[C@@H](Cc2ccccc2)NC(=O)OCc2cncs2)Cc2ccccc2)cs1 | pIC50 | 4.82

Value lookup for pIC50; key = CC(C)c1nc(CN(C)C(=O)N[C@H](CCN2CCOCC2)C(=O)N[C@H](CC[C@H](Cc2ccccc2)NC(=O)OCc2cncs2)Cc2ccccc2)cs1
< 4.60

* * *

TESTED_TARGET: Protease (Human immunodeficiency virus 1, UniProt Q9YQ12)
Sequence (Q9YQ12 whole entry): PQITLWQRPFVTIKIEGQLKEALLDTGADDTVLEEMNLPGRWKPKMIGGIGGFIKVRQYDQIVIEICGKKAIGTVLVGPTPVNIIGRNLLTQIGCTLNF
PROTOCOL_SUMMARY: Inhibition of HIV-1 protease
READOUT: IC50 (µM)

Previously resolved entries follow.
QUERY_SMILES | IC50, µM
CN(Cc1cncs1)C(=O)N[C@@H](CO)C(=O)N[C@H](CC[C@H](Cc1ccccc1)NC(=O)OCc1cncs1)Cc1ccccc1 | 4.3
CC(C)[C@H](NC(=O)N(C)Cc1cscn1)C(=O)N[C@H](CC[C@H](Cc1ccccc1)NC(=O)OCc1cncs1)Cc1ccccc1 | 0.242
CC(C)c1nc(CN(C)C(=O)N[C@@H](CCNS(C)(=O)=O)C(=O)N[C@H](CC[C@H](Cc2ccccc2)NC(=O)OCc2cncs2)Cc2ccccc2)cs1 | 8
CC(C)c1nc(CN(C)C(=O)N[C@@H](Cn2cccn2)C(=O)N[C@H](CC[C@H](Cc2ccccc2)NC(=O)OCc2cncs2)Cc2ccccc2)cs1 | 0.03
CC(C)c1nc(CN(C)C(=O)N[C@@H](Cc2c[nH]cn2)C(=O)N[C@H](CC[C@H](Cc2ccccc2)NC(=O)OCc2cncs2)Cc2ccccc2)cs1 | 3

a. CC(C)c1nc(CN(C)C(=O)N[C@@H](CC(=O)O)C(=O)N[C@H](CC[C@H](Cc2ccccc2)NC(=O)OCc2cncs2)Cc2ccccc2)cs1
b. CC(C)c1nc(CN(C)C(=O)N[C@@H](COCc2ccccc2)C(=O)N[C@H](CC[C@H](Cc2ccccc2)NC(=O)OCc2cncs2)Cc2ccccc2)cs1
Could you tell me which of these two has the smaller IC50 figure? First: a Second: b Answer by quoting the chosen item's label.
a

1. CC(C)c1nc(CN(C(=O)N[C@@H](CO)C(=O)N[C@H](CC[C@H](Cc2ccccc2)NC(=O)OCc2cncs2)Cc2ccccc2)C2CC2)cs1
2. Cc1nc(CN(C)C(=O)N[C@H](C(=O)N[C@H](CC[C@H](Cc2ccccc2)NC(=O)OCc2cncs2)Cc2ccccc2)C(C)C)cs1
Param pair: 1 , 2 . Output: the one whose IC50 is numerically greater. Answer by quoting the chosen item's label.
1
